Test system: UACC-257 melanoma
protocol_summary: NCI-60 one-dose screen, 48 h (100 = growth as untreated, 0 = no growth, -100 = all killed)
condition_label: 10 µM unless noted
About 83,000 compounds went through this panel and 20% of them were active in at least one assay; those are over-represented in the sample as a whole. The source made the active and inactive calls. How the source made its calls: active means growth percent below 10; inactive means the rest.
Listed here: items and their measured growth.
readout_type: growth

compound=N/C(=N\c1nc2ccccc2[nH]1)NC(=O)Cc1cccc2ccccc12 readout_type=growth reported_measurement="6.29% (active)"
compound=COC(=O)c1cc2c(=O)[nH]cc3c2c(n1)CCC3 readout_type=growth reported_measurement="102% (inactive)"
compound=COc1ncc(-c2ccc3nccc(C#CCCCCC(=O)O)c3c2)cc1NS(=O)(=O)c1ccc(F)cc1F readout_type=growth reported_measurement="-2.67% (active)"
compound=C=C(C)[C@@H]1CC[C@]2(C(=O)N3CCN(C)CC3)CC[C@]3(C)[C@H](CC[C@@H]4[C@@]5(C)C/C(=C/c6ccncc6)[C@H](O)C(C)(C)[C@@H]5CC[C@]43C)[C@@H]12 readout_type=growth reported_measurement="-31.2% [100 µM] (active)"
compound="CC[C@]1(O)CC2CN(CCc3c([nH]c4ccccc34)[C@@](C(=O)OC)(c3cc4c(cc3OC)N(C=O)[C@H]3[C@@](O)(C(=O)OC)[C@H](OC(C)=O)[C@]5(CC)C=CCN6CC[C@]43[C@@H]65)C2)C1 (some centres not stated)" readout_type=growth reported_measurement="53.8% (inactive)"
compound=CCN(CC)c1cc(N)c(Cc2c(N)cc(N(CC)CC)cc2Cl)c(Cl)c1 readout_type=growth reported_measurement="12.4% (inactive)"
compound=CSc1nc2sc3cc(Cl)c(Cl)cc3n2c(=N)c1C#N readout_type=growth reported_measurement="99.8% (inactive)"

---

Tested on: NCI-H226 lung
protocol_summary: NCI-60 one-dose screen, 48 h (100 = growth as untreated, 0 = no growth, -100 = all killed)
condition_label: 10 µM unless noted
The panel holds about 83,000 compounds, 20% with a hit somewhere; the sample as a whole holds those more often. Calls of active or inactive are those of the source. The calls were made as follows: active = growth percent below 10; inactive = the rest.
readout_type: growth

query_smiles=COc1ccc2c(c1)c(-c1noc(-c3cn(C)c4ncc(F)cc34)n1)cn2C reported_measurement="108% (inactive)"
query_smiles=CCn1cc(-c2cc(-c3ccc(Cl)cc3)nc(N)n2)c(-c2ccc(Br)cc2)n1 reported_measurement="86.1% (inactive)"
query_smiles=O=C(N/N=C1\c2ccccc2-c2cccc(C(=O)O)c21)c1ccc(O)cc1 reported_measurement="89.6% (inactive)"
query_smiles=c1cc2ccc3cc2cc1CNCCN1CCNCc2ccc4ccc(cc4c2)CNCCN(CCNC3)CCNCc2ccc3ccc(cc3c2)CNCC1 reported_measurement="6.46% (active)"
query_smiles=CCCCCCCCCCCCCC[n+]1cccc(C(N)=O)c1 reported_measurement="13.8% (inactive)"
query_smiles=COC(=O)c1c(C)[nH]c(/C=C2\N=C(c3ccc[nH]3)C=C2OC)c1C reported_measurement="-16% (active)"
query_smiles=O=C1COCCN1c1ccc(NCc2cn(Cc3ccccc3)c3ccccc23)cc1 reported_measurement="-40.1% (active)"
query_smiles=O=c1c2c3c(sc2n2cnnc2n1Cc1ccccc1)CCCC3 reported_measurement="85% (inactive)"
query_smiles=CC(C)C1=NOC(=O)C1=Cc1cn(-c2ccccc2)nc1-c1cccc([N+](=O)[O-])c1 reported_measurement="102% (inactive)"
query_smiles=CCOC(CNC(=O)c1cccc([N+](=O)[O-])c1)OCC reported_measurement="89.8% (inactive)"
query_smiles=Cn1cc(-c2nnc(-c3cn(C)c4ncccc34)s2)c2ccccc21 reported_measurement="96% (inactive)"
query_smiles=Cc1ccc(NC(=O)N[C@@H](Cc2cc(F)cc(F)c2)C(=O)N[C@@H]2C(=O)N3CCC[C@H]3C(=O)N3CCCC[C@H]3C(=O)N[C@@H](C)C(=O)N3C[C@H](C)C[C@H]3C(=O)O[C@H]2C)cc1 reported_measurement="28.5% (inactive)"
query_smiles=CCn1cc(-c2ccnc(NCCNS(=O)(=O)c3cccc4ccccc34)c2)c(-c2cccc(O)c2)n1 reported_measurement="94.2% (inactive)"
query_smiles=C=CCc1nc2ccccc2s1 reported_measurement="101% (inactive)"
query_smiles=COc1cc(C)cc2oc3oc(=N)c(C(=O)c4ccccc4)cc3c(=O)c12 reported_measurement="103% (inactive)"
query_smiles=COc1ccc(-c2c(C)nn3c(NCCN4CCOCC4)cc(C)nc23)cc1OC reported_measurement="94.2% (inactive)"
query_smiles=CCNc1cc2c(cc1Br)-c1ccccc1C2=O reported_measurement="92.3% (inactive)"
query_smiles=Cc1cc(N2CCCCCC2)nc(N2CCN(CC(=O)Nc3ccc4c(ccn4Cc4ccccc4)c3)CC2)n1 reported_measurement="53.5% (inactive)"
query_smiles=CCOc1ccccc1/C=N\Nc1ccc(S(=O)(=O)c2ccc(N/N=C/c3ccccc3OCC)cc2)cc1 reported_measurement="79.5% (inactive)"
query_smiles=C=C(C)[C@@H]1CC[C@]2(C(N)=O)CC[C@]3(C)[C@H](CC[C@@H]4[C@@]5(C)C/C(=C/c6cccnc6)C(=O)C(C)(C)[C@@H]5CC[C@]43C)[C@@H]12 reported_measurement="9.08% [100 µM] (active)"
query_smiles=O=C(Nc1ccc(Nc2ccncc2)cc1)c1ccc([N+](=O)[O-])cc1 reported_measurement="91.1% (inactive)"
query_smiles=c1ccc2c(c1)CN(CCCN1CCOCC1)C2 reported_measurement="96.2% (inactive)"

Each recorded value in this set is attributed to PubChem BioAssay (NCI).
